- STUDY_SYSTEM: EGFR L858R (Homo sapiens, UniProt P00533, L858R)
- Construct: purchased SignalChem E10-122BG
- Sequence (P00533 25-1210 L858R): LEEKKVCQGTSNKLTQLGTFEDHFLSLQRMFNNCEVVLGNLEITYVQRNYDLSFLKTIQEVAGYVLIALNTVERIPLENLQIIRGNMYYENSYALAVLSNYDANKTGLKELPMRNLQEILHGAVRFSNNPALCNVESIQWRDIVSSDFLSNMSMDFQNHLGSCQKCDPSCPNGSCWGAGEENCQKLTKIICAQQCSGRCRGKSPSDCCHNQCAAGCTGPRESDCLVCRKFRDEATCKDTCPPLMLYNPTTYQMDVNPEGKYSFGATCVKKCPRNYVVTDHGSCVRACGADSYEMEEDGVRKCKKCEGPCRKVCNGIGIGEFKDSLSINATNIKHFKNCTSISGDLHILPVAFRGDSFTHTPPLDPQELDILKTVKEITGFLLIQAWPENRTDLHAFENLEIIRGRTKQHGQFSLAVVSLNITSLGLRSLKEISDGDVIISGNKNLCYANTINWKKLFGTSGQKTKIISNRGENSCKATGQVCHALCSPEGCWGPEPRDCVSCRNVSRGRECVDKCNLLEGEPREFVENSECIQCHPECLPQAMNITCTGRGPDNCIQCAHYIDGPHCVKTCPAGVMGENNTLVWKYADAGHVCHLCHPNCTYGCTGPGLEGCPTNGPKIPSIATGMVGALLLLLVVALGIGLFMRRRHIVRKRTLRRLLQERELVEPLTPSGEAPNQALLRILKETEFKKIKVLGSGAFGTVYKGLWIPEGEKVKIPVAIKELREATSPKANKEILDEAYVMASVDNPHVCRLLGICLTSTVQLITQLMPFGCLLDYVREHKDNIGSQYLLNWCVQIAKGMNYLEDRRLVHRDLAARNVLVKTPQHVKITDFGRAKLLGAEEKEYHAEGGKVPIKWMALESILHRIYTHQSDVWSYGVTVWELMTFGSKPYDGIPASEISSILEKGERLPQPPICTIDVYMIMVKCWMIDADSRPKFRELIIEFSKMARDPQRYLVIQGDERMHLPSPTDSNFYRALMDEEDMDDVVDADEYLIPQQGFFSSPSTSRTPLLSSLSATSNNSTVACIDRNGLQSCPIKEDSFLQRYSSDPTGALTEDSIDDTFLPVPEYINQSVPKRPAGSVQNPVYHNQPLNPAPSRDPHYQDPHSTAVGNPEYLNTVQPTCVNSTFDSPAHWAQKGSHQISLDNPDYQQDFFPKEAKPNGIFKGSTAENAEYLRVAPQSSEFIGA
- ASSAY_METHOD_TEXT: Biochemical EGFR inhibition assay (Caliper mobility shift), EGFR L858R
- RECORDED_CONDITIONS: read-out: Enz EGFR_L858R IC50
pIC50: −log10 of the molar value.

MOLECULE	pIC50
C[C@@H](Oc1cc(-c2cnn(C)c2)cc2ncnc(Nc3ccc4ncccc4c3F)c12)C(CO)CO	> 8.00
C[C@@H](Oc1cc(-c2cnn(C)c2)cc2ncnc(Nc3ccc4ncccc4c3F)c12)C1COC1	> 8.00
COC1CCN(c2cc(O[C@H](C)C3COC3)c3c(Nc4ccc5ncccc5c4F)ncnc3c2)C1 (mixture of isomers)	> 8.00
C[C@H](CN(C)C)Oc1cc(-n2cc(F)cn2)cc2ncnc(Nc3ccc4ncccc4c3F)c12	> 8.00
CC(CO)n1cc(-c2cc(O[C@H](C)C3COC3)c3c(Nc4ccc5ncccc5c4F)ncnc3c2)cn1 (mixture of isomers)	> 8.00
C[C@H](CN(C)C)Oc1cc(-c2cnn(CC(F)F)c2)cc2ncnc(Nc3ccc4ncccc4c3F)c12	> 8.00
C[C@H](CN(C)C1CCC1)Oc1cc(-c2cnn(C)c2)cc2ncnc(Nc3ccc4ncccc4c3F)c12	> 8.00

----------
- STUDY_SYSTEM: EGFR L858R (Homo sapiens, UniProt P00533, L858R)
- Construct: purchased SignalChem E10-122BG
- ASSAY_METHOD_TEXT: Biochemical EGFR inhibition assay (Caliper mobility shift), EGFR L858R
- RECORDED_CONDITIONS: read-out: Enz EGFR_L858R IC50
pIC50: −log10 of the molar value.
Each entry below lists one item and its recorded pIC50 value.

COMPOUND	pIC50
COC[C@@H](C)Oc1cc(-c2cnn(C)c2)cc2ncnc(Nc3ccc4ncccc4c3F)c12 [Example 31]	> 8.00
C[C@H](CN(C)C)Oc1cc(-c2cnn(C)c2)cc2nc[n+]([O-])c(Nc3ccc4ncccc4c3F)c12 (single isomer, unassigned) [Example 128]	7.30 to 8.00
C[C@H](CN(C)C)Oc1cc(N2CC3CC(C2)O3)cc2ncnc(Nc3ccc4ncccc4c3F)c12 [Example 70]	7.30 to 8.00
CC(CN(C)C)Oc1cc(N2CC3CC(C2)O3)cc2ncnc(Nc3ccc4ncccc4c3)c12 (single isomer, unassigned) [Example 67]	7.30 to 8.00
C[C@H](CN(C)C)Oc1cc(-c2cnn(C)c2)cc2ncnc(Nc3ccc4ncc(F)cc4c3F)c12 [Example 104]	7.30 to 8.00
COc1cc(O[C@H](C)C2COC2)c2c(Nc3ccc4ncccc4c3F)ncnc2c1 [Example 56]	> 8.00
Cc1ccc2c(F)c(Nc3ncnc4cc(-c5cnn(C)c5)cc(O[C@H](C)CN(C)C)c34)ccc2n1 [Example 107]	7.30 to 8.00

----------
- STUDY_SYSTEM: EGFR L858R (Homo sapiens, UniProt P00533, L858R)
- Construct: purchased SignalChem E10-122BG
- ASSAY_METHOD_TEXT: Biochemical EGFR inhibition assay (Caliper mobility shift), EGFR L858R
- RECORDED_CONDITIONS: 1.0 mM ATP or ATP Km; room temperature (25° C.); read-out: Enz EGFR_L858R IC50
pIC50: −log10 of the molar value.
ENDPOINT: pIC50

COMPOUND	VAL
C[C@H](CN(C)C)Oc1cc(N2CCO[C@@H](C(F)F)C2)cc2ncnc(Nc3ccc4ncccc4c3F)c12 (single isomer, unassigned) [Example 99a]	> 8.00
C[C@@H](Oc1cc(-c2cnn([C@@H](C)CO)c2)cc2ncnc(Nc3ccc4ncccc4c3F)c12)C1COC1 (single isomer, unassigned) [Example 121]	> 8.00
C[C@@H](Oc1cc(-c2cnn(C)c2)cc2ncnc(Nc3ccc4ncccc4c3F)c12)[C@@H]1COCCN1C (single isomer, unassigned) [Example 125]	> 8.00
CO[C@H]1CCN(c2cc(O[C@H](C)CN(C)C)c3c(Nc4ccc5ncccc5c4F)ncnc3c2)C1 (single isomer, unassigned) [Example 87b]	> 8.00
CN(C)[C@@H]1CC[C@H]1Oc1cc(-c2cnn(C)c2)cc2ncnc(Nc3ccc4ncccc4c3F)c12 (single isomer, unassigned) [Example 141]	7.30 to 8.00
C[C@H](Oc1cc(-c2cnn(C)c2)cc2ncnc(Nc3ccc4ncccc4c3F)c12)[C@@H]1CCCN1C (single isomer, unassigned) [Example 147]	> 8.00

----------
- STUDY_SYSTEM: EGFR L858R (Homo sapiens, UniProt P00533, L858R)
- Construct: purchased SignalChem E10-122BG
- ASSAY_METHOD_TEXT: Biochemical EGFR inhibition assay (Caliper mobility shift), EGFR L858R
- RECORDED_CONDITIONS: 1.0 mM ATP or ATP Km; room temperature (25° C.); read-out: Enz EGFR_L858R IC50
ENDPOINT: IC50

MOLECULE	ENDPOINT	VAL
CN(C)C[C@H](Oc1cc(-c2cnn(C)c2)cc2ncnc(Nc3ccc4ncccc4c3F)c12)C(F)F (single isomer, unassigned)	IC50	< 10 nM
C[C@H](Oc1cc(-c2cnn(C)c2)cc2ncnc(Nc3ccc4ncccc4c3F)c12)C1COC1 (single isomer, unassigned)	IC50	< 10 nM
C[C@H](CN(C)C)Oc1cc(-c2cnn(C)c2)cc2ncnc(Nc3ccc4ncccc4c3)c12 (single isomer, unassigned)	IC50	> 50.1 nM
CC[C@H](Oc1cc(-c2cnn(C)c2)cc2ncnc(Nc3ccc4ncccc4c3F)c12)C1COC1 (single isomer, unassigned)	IC50	< 10 nM
C[C@@H](Oc1cc(-c2cnn(C)c2)cc2ncnc(Nc3ccc4ncccc4c3F)c12)C1COC1 (single isomer, unassigned)	IC50	< 10 nM
C[C@H](Oc1cc(-c2cnn(C)c2)cc2ncnc(Nc3ccc4ncccc4c3F)c12)[C@@H](C)O (single isomer, unassigned)	IC50	< 10 nM

----------
Each entry below lists one item and its recorded pIC50 value.
- STUDY_SYSTEM: EGFR L858R (Homo sapiens, UniProt P00533, L858R)
- Construct: purchased SignalChem E10-122BG
- ASSAY_METHOD_TEXT: Biochemical EGFR inhibition assay (Caliper mobility shift), EGFR L858R
- RECORDED_CONDITIONS: 1.0 mM ATP or ATP Km; room temperature (25° C.); read-out: Enz EGFR_L858R IC50
pIC50: −log10 of the molar value.

COMPOUND	pIC50
C[C@@H](Oc1cc(-c2cnn(C)c2)cc2ncnc(Nc3ccc4ncccc4c3F)c12)[C@@H]1COCCN1C (single isomer, unassigned) [Example 126]	> 8.00
C[C@@H](Oc1cc(-c2cnn(C)c2)cc2ncnc(Nc3ccc4ncccc4c3F)c12)[C@@H]1COCCN1 (single isomer, unassigned) [Example 123]	> 8.00
C[C@@H](Oc1cc(-c2cnn(C)c2)cc2ncnc(Nc3ccc4ncccc4c3F)c12)[C@@H]1COCCN1 (single isomer, unassigned) [Example 124]	> 8.00
C[C@H](CN(C)C)Oc1cc(N2CCO[C@@H](C(F)F)C2)cc2ncnc(Nc3ccc4ncccc4c3F)c12 (single isomer, unassigned) [Example 99b]	7.30 to 8.00
CN1CC[C@H](Oc2cc(-c3cnn(C)c3)cc3ncnc(Nc4ccc5ncccc5c4F)c23)[C@@H](F)C1 (single isomer, unassigned)	> 8.00
CO[C@H]1CCN(c2cc(O[C@H](C)C3COC3)c3c(Nc4ccc5ncccc5c4F)ncnc3c2)C1 (single isomer, unassigned) [Example 85b]	> 8.00

----------
Each entry below lists one item and its recorded pIC50 value.
- STUDY_SYSTEM: intracellular phosphorylation of EGFR (Tyr1068) in PC-9 cells (Ex19Del) (Homo sapiens, UniProt P00533, DEL746-750)
- Sequence (P00533 with tags, fused parts or gaps DEL746-750): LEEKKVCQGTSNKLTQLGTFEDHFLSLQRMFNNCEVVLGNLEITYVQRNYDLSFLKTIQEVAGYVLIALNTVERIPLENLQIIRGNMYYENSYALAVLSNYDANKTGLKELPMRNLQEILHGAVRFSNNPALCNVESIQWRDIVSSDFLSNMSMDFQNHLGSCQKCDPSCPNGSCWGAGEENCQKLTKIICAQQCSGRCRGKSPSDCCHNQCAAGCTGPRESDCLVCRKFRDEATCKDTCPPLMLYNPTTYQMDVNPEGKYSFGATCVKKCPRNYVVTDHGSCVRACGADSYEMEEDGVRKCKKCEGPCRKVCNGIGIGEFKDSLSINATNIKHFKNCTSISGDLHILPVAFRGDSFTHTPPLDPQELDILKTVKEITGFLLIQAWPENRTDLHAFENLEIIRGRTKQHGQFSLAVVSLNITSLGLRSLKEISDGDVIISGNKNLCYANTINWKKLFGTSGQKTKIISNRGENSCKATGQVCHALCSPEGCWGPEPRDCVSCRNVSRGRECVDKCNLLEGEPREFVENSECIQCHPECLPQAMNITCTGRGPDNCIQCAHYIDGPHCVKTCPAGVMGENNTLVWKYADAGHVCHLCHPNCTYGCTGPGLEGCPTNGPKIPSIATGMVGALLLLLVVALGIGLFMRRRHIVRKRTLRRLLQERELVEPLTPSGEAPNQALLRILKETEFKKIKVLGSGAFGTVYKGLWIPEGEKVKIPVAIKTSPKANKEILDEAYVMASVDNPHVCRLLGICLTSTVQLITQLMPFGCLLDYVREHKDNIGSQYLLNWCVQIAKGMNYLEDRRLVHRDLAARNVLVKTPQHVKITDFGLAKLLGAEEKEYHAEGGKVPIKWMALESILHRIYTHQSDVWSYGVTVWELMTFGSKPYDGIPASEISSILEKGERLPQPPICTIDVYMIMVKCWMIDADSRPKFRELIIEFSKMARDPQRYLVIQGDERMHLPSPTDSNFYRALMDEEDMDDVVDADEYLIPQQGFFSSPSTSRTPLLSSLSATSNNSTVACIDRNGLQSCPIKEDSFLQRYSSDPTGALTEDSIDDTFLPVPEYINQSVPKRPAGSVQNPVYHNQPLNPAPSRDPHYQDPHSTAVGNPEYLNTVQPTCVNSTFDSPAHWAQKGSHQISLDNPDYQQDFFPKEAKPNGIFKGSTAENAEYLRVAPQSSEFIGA
- ASSAY_METHOD_TEXT: PC-9 pEGFR AlphaLISA assay
- RECORDED_CONDITIONS: 4 hours compound incubation, read-out: Ext pEGFR_PC-9 Ex19Del IC50
pIC50: −log10 of the molar value.
ENDPOINT: pIC50

MOLECULE	VAL
C[C@H](Oc1cc(-c2cnn(C)c2)cc2ncnc(Nc3ccc4ncccc4c3F)c12)C1CCOCC1	≥ 8.00
C[C@@H](Oc1cc(N2CC3CC(C2)O3)cc2ncnc(Nc3ccc4ncccc4c3F)c12)C1COC1	≥ 8.00
C[C@@H](Oc1cc(-c2cnn(C)c2)cc2ncnc(Nc3ccc4ncccc4c3F)c12)[C@@H]1COCCN1C (single isomer, unassigned) [Example 125]	7.30 to 8.00
CC(CN(C)C)Oc1cc(-c2cnn(C)c2)cc2ncnc(Nc3ccc4ncccc4c3)c12 (racemic)	≥ 8.00
C[C@H](CN(C)C)Oc1cc(N2CC3CCC(C2)O3)cc2ncnc(Nc3ccc4ncccc4c3F)c12	< 7.30
[2H]c1c(-c2cnn(C)c2)cc(O[C@H](C)CN(C)C)c2c(Nc3ccc4ncccc4c3F)ncnc12	≥ 8.00
CO[C@H]1CCN(c2cc(O[C@H](C)C3COC3)c3c(Nc4ccc5ncccc5c4F)ncnc3c2)C1 (single isomer, unassigned) [Example 85b]	≥ 8.00
C[C@@H](Oc1cc(-c2cnn(C)c2)cc2ncnc(Nc3ccc4ncc(F)cc4c3)c12)C1COC1	≥ 8.00
CN1CC[C@H](Oc2cc(-c3cnn(C)c3)cc3ncnc(Nc4ccc5ncccc5c4F)c23)[C@@H](F)C1 (single isomer, unassigned)	7.30 to 8.00
C[C@H](CN(C)C)Oc1cc(-c2cnn(CC(F)F)c2)cc2ncnc(Nc3ccc4ncccc4c3F)c12	≥ 8.00
C[C@H](CN(C)C)Oc1cc(-c2cnn(C)c2)cc2ncnc(Nc3ccc4nccnc4c3)c12	7.30 to 8.00
C[C@@H](CN(C)C)Oc1cc(-c2cnn(C)c2)cc2ncnc(Nc3ccc4ncccc4c3F)c12 (single isomer, unassigned)	< 7.30
C[C@H](Oc1cc(-c2cnn(C)c2)cc2ncnc(Nc3ccc4ncccc4c3F)c12)[C@@H]1CCCN1C (single isomer, unassigned) [Example 147]	≥ 8.00
C[C@@H](Oc1cc(-c2cnn(C)c2)cc2ncnc(Nc3ccc4ncccc4c3F)c12)C1COC1 [Example 46]	≥ 8.00
C[C@H](CN(C)C)Oc1cc(N2C3COCC2C3)cc2ncnc(Nc3ccc4ncccc4c3F)c12	< 7.30
CN1CCC[C@H](Oc2cc(-c3cnn(C)c3)cc3ncnc(Nc4ccc5ncccc5c4F)c23)C1	≥ 8.00
CO[C@H]1CCN(c2cc(O[C@H](C)CN(C)C)c3c(Nc4ccc5ncccc5c4F)ncnc3c2)C1 (single isomer, unassigned) [Example 87b]	≥ 8.00
[2H]c1ccc2cc(Nc3ncnc4cc(-c5cnn(C)c5)cc(O[C@H](C)CN(C)C)c34)ccc2n1	≥ 8.00
C[C@H](CN(C)C)Oc1cc(N2CC[C@H](C(C)(C)O)C2)cc2ncnc(Nc3ccc4ncccc4c3F)c12	≥ 8.00
C[C@@H](Oc1cc(N2CC[C@H](N(C)C)C2)cc2ncnc(Nc3ccc4ncccc4c3F)c12)C1COC1	≥ 8.00
C[C@H](Oc1cc(-c2cnn(C)c2)cc2ncnc(Nc3ccc4ncccc4c3F)c12)C(=O)N1CCOCC1 (single isomer, unassigned)	≥ 8.00
Cc1cnn(-c2cc(O[C@H](C)CN(C)C)c3c(Nc4ccc5ncccc5c4F)ncnc3c2)c1	≥ 8.00
CN(C)C1(COc2cc(-c3cnn(C)c3)cc3ncnc(Nc4ccc5ncccc5c4F)c23)COC1	7.30 to 8.00
CN(C)C[C@@H](Oc1cc(-c2cnn(C)c2)cc2ncnc(Nc3ccc4ncccc4c3F)c12)C(F)F (single isomer, unassigned)	7.30 to 8.00
C[C@H](CN(C)C)Oc1cc(-c2cnn(C)c2)cc2ncnc(Nc3cc(F)c4ncccc4c3F)c12	≥ 8.00
CN(C)[C@@H]1CC[C@H]1Oc1cc(-c2cnn(C)c2)cc2ncnc(Nc3ccc4ncccc4c3F)c12 (single isomer, unassigned)	< 7.30
C[C@H](CN(C)C)Oc1cc(N2CCCS2(=O)=O)cc2ncnc(Nc3ccc4ncccc4c3F)c12	7.30 to 8.00
